# target system: Reg1_301-599 (amino acids 301-599 of human Regnase-1) phosphorylation by TBK1 (Homo sapiens)
# Sequence (Q5D1E8 301-599): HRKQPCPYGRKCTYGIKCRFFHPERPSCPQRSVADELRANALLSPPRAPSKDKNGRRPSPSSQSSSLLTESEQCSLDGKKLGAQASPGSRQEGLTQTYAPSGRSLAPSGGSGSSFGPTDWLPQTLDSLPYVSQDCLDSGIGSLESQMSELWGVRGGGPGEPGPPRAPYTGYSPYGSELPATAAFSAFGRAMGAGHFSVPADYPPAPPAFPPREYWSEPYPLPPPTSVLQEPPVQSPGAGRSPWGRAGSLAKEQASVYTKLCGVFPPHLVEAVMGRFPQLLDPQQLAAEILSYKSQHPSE
pIC50: −log10 of the molar value. Residues, ends and D or L forms follow the SMILES beside them.

| molecule | pIC50 |
| --- | --- |
| CC[C@H](C)[C@@H]1NC(=O)[C@H](CC(=O)O)NC(=O)[C@H](C)N(C)C(=O)C[C@@H](C(=O)N2CCCC2)NC(=O)[C@H](Cc2c[nH]c3ccccc23)NC(=O)[C@H](CC(=O)O)NC(=O)[C@H](Cc2c[nH]c3ccccc23)NC(=O)[C@H](Cc2ccc(O)cc2)NC(=O)[C@H](CC(=O)O)NC(=O)[C@H](Cc2ccccc2)NC(=O)[C@H](Cc2c[nH]c3ccccc23)NC1=O [PP17] (HELM PEPTIDE1{[meA].D.I.W.F.D.Y.W.D.W.D.[C1CCN([*:1])C1]}$PEPTIDE1,PEPTIDE1,1:R1-11:R3$$$V2.0) | > 7.22 |
| CC(C)[C@@H]1NC(=O)[C@H](CCCCN)NC(=O)[C@H](Cc2ccc(O)cc2)NC(=O)[C@H](Cc2c[nH]c3ccccc23)NC(=O)[C@H](CO)NC(=O)[C@H]([C@@H](C)O)NC(=O)[C@H](C)N(C)C(=O)C[C@@H](C(=O)N2CCCC2)NC(=O)[C@H](CCC(N)=O)NC(=O)CNC(=O)[C@H](Cc2c[nH]c3ccccc23)NC(=O)[C@H](CC(N)=O)NC1=O [PP1] (HELM PEPTIDE1{[meA].T.S.W.Y.K.V.N.W.G.Q.D.[C1CCN([*:1])C1]}$PEPTIDE1,PEPTIDE1,1:R1-12:R3$$$V2.0) | < 4.21 |
| CC[C@H](C)[C@@H]1NC(=O)[C@H](CCCCN)NC(=O)[C@H](Cc2ccc(O)cc2)NC(=O)[C@H](Cc2c[nH]c3ccccc23)NC(=O)[C@H](CO)NC(=O)[C@H](CC(N)=O)NC(=O)[C@H](C)N(C)C(=O)C[C@@H](C(=O)N2CCCC2)NC(=O)[C@H](CC(C)C)NC(=O)CNC(=O)[C@H](Cc2c[nH]c3ccccc23)NC1=O [PP21] (HELM PEPTIDE1{[meA].N.S.W.Y.K.I.W.G.L.D.[C1CCN([*:1])C1]}$PEPTIDE1,PEPTIDE1,1:R1-11:R3$$$V2.0) | 4.77 |
